biological target: human α4β7 integrin (human), P13612; assay: inhibition of RPMI 8866 cell adhesion to huMAdCAM-1-Ig
ENDPOINT NAME: IC50 (µM)
Only the number, expressed in µM, is required.

IC50 lookup needed for LDTSL (modifications not checked) [R1-Leu-Asp-Thr-Ser-Leu, L# 1491 (Table 4)] , thanks.
3.4
